Conditions: 333.15 K; 101.33 kPa; Liquid; Vibrating tube method
PROPERTY_LABEL: mass density (kg/m3)
State the answer as a number, implicitly in kg/m3.

Record CCn1cc[n+](C)c1.O=S(=O)([N-]S(=O)(=O)C(F)(F)F)C(F)(F)F , field mass density: 1479.7

Query CCCCCCn1cc[n+](C)c1.F[P-](F)(F)(F)(F)F [1-hexyl-3-methylimidazolium hexafluorophosphate] yields mass density of 1264.9

Lab note: CCCCn1cc[n+](C)c1.F[B-](F)(F)F [1-butyl-3-methylimidazolium tetrafluoroborate] gave mass density of 1174.6

Entry CCCCCCCCCCCCCC[P+](CCCCCC)(CCCCCC)CCCCCC.O=S(=O)([O-])C(F)(F)F ; mass density = 959.6

Record summary for CCCCCC[n+]1ccn(C)c1.O=S(=O)([N-]S(=O)(=O)C(F)(F)F)C(F)(F)F : reported mass density = 1339.1

---

Provide the reported refractive index of each item.
Assay: refractive index (Na D-line) (dimensionless)
Settings: 313.15 K; 101.33 kPa; Liquid; Standard Abbe refractometry
Enter the number alone.

Measured refractive index, CCCCn1cc[n+](C)c1.F[B-](F)(F)F [1-butyl-3-methylimidazolium tetrafluoroborate] : 1.41748

Recorded result, CCCCCCCCn1cc[n+](C)c1.O=S(=O)([N-]S(=O)(=O)C(F)(F)F)C(F)(F)F , refractive index: 1.42854

// refractive index value for CCn1cc[n+](C)c1.O=S(=O)([N-]S(=O)(=O)C(F)(F)F)C(F)(F)F : 1.41849

// refractive index value for CCCCn1cc[n+](C)c1.COS(=O)(=O)[O-] [1-butyl-3-methylimidazolium methyl sulfate] : 1.47473

CCCCCCCC[n+]1ccn(C)c1.F[P-](F)(F)(F)(F)F [1-octyl-3-methylimidazolium hexafluorophosphate] has a reported refractive index of 1.41949

refractive index reading for CC(=O)[O-].CCCCn1cc[n+](C)c1 [1-butyl-3-methylimidazolium acetate] : 1.48879

Notebook: CC(=O)[O-].CCCCCCCCCCCCCC[P+](CCCCCC)(CCCCCC)CCCCCC [trihexyl(tetradecyl)phosphonium acetate] , refractive index read as 1.47674

Summary for this molecule, CCCCn1cc[n+](C)c1.F[P-](F)(F)(F)(F)F [1-butyl-3-methylimidazolium hexafluorophosphate] : refractive index is 1.40543

For CCCCn1cc[n+](C)c1.O=S(=O)([O-])C(F)(F)F [1-butyl-3-methylimidazolium trifluoromethanesulfonate] the molecule record lists refractive index as 1.43155

---

Assay: refractive index (Na D-line) (dimensionless)
Conditions: 333.15 K; 101.33 kPa; Liquid; Standard Abbe refractometry
PROPERTY_LABEL: refractive index
No unit in the answer, only the number.

Given item CC(=O)[O-].CCCCCCCCCCCCCC[P+](CCCCCC)(CCCCCC)CCCCCC [trihexyl(tetradecyl)phosphonium acetate] , the value recorded as its refractive index is 1.47072

Record CCCCCCn1cc[n+](C)c1.F[P-](F)(F)(F)(F)F [1-hexyl-3-methylimidazolium hexafluorophosphate] , field refractive index: 1.40844

Given item CCCCCCCCCCCCn1cc[n+](C)c1.O=S(=O)([N-]S(=O)(=O)C(F)(F)F)C(F)(F)F , the value recorded as its refractive index is 1.42754

The compound identified as CC(=O)[O-].CCCCn1cc[n+](C)c1 [1-butyl-3-methylimidazolium acetate] registered its refractive index at 1.48377

Entry CCCCCCCC[n+]1ccn(C)c1.F[P-](F)(F)(F)(F)F [1-octyl-3-methylimidazolium hexafluorophosphate] — recorded refractive index = 1.41347

Note to self: refractive index recorded for CCCCCCCCCCCCCCn1cc[n+](C)c1.O=S(=O)([N-]S(=O)(=O)C(F)(F)F)C(F)(F)F was 1.42854

Measured refractive index of CCn1cc[n+](C)c1.O=S(=O)([N-]S(=O)(=O)C(F)(F)F)C(F)(F)F : 1.41346

According to the records, this compound CCCCn1cc[n+](C)c1.COS(=O)(=O)[O-] [1-butyl-3-methylimidazolium methyl sulfate] displays refractive index of 1.46971

---

I'd appreciate it if you could supply refractive index values for the items below.
Assay: refractive index (Na D-line) (dimensionless)
Settings: 298.15 K; 101.33 kPa; Liquid; Standard Abbe refractometry
Form field (numeric): enter value without unit.

Entry CCCCCC[n+]1ccn(C)c1.O=S(=O)([N-]S(=O)(=O)C(F)(F)F)C(F)(F)F ; refractive index = 1.42954

// refractive index lookup, compound = CCn1cc[n+](C)c1.O=S(=O)([N-]S(=O)(=O)C(F)(F)F)C(F)(F)F , result: 1.42251

Query CCCCn1cc[n+](C)c1.F[P-](F)(F)(F)(F)F [1-butyl-3-methylimidazolium hexafluorophosphate] yields refractive index of 1.40844

Lab note: CCCCCCCCCCn1cc[n+](C)c1.O=S(=O)([N-]S(=O)(=O)C(F)(F)F)C(F)(F)F gave refractive index of 1.43557

Entry CC(=O)[O-].CCCCCCCCCCCCCC[P+](CCCCCC)(CCCCCC)CCCCCC [trihexyl(tetradecyl)phosphonium acetate] ; refractive index = 1.48176

Item: CCCCn1cc[n+](C)c1.COS(=O)(=O)[O-] [1-butyl-3-methylimidazolium methyl sulfate] | refractive index: 1.47775

For CCCCCCCCn1cc[n+](C)c1.O=S(=O)([N-]S(=O)(=O)C(F)(F)F)C(F)(F)F the compound record lists refractive index as 1.43256

Kindly note the recorded refractive index for CC(=O)[O-].CCCCn1cc[n+](C)c1 [1-butyl-3-methylimidazolium acetate] , which is 1.49381

refractive index in this record for CCCCn1cc[n+](C)c1.F[B-](F)(F)F [1-butyl-3-methylimidazolium tetrafluoroborate] : 1.4215

Short answer for CCCCn1cc[n+](C)c1.O=S(=O)([O-])C(F)(F)F [1-butyl-3-methylimidazolium trifluoromethanesulfonate] : refractive index was 1.43657

Recorded refractive index (compound CCCCCCn1cc[n+](C)c1.F[P-](F)(F)(F)(F)F [1-hexyl-3-methylimidazolium hexafluorophosphate] ): 1.41648

Documented refractive index of CCCCCCCCCCCCCC[P+](CCCCCC)(CCCCCC)CCCCCC.O=S(=O)([N-]S(=O)(=O)C(F)(F)F)C(F)(F)F : 1.44963

Notebook: CCCCCCCC[n+]1ccn(C)c1.F[P-](F)(F)(F)(F)F [1-octyl-3-methylimidazolium hexafluorophosphate] , refractive index read as 1.42351

Lab book: refractive index of CCCCCCCCCCCCCC[P+](CCCCCC)(CCCCCC)CCCCCC.O=S(=O)([O-])C(F)(F)F noted as 1.45766

CCCCCCCCCCCCn1cc[n+](C)c1.O=S(=O)([N-]S(=O)(=O)C(F)(F)F)C(F)(F)F has a reported refractive index of 1.43758

The compound listed as CCCC[n+]1ccn(C)c1.O=S(=O)([N-]S(=O)(=O)C(F)(F)F)C(F)(F)F shows refractive index equal to 1.42653

---

Conditions: 298.15 K; 101.33 kPa; Liquid; Vibrating tube method
I'd appreciate it if you could supply mass density values for the items below.
Report the value in kg/m3 with no unit label.

// mass density value for CCCCCCn1cc[n+](C)c1.F[P-](F)(F)(F)(F)F [1-hexyl-3-methylimidazolium hexafluorophosphate] : 1292.4

// recorded mass density for CCCCCCCCn1cc[n+](C)c1.O=S(=O)([N-]S(=O)(=O)C(F)(F)F)C(F)(F)F : 1318.9

mass density measured on CCn1cc[n+](C)c1.O=S(=O)([N-]S(=O)(=O)C(F)(F)F)C(F)(F)F = 1514.7

Note to self: mass density recorded for CCCCCCCC[n+]1ccn(C)c1.F[P-](F)(F)(F)(F)F [1-octyl-3-methylimidazolium hexafluorophosphate] was 1234

response.value for CCCCn1cc[n+](C)c1.F[B-](F)(F)F [1-butyl-3-methylimidazolium tetrafluoroborate] (field: mass density) = 1199.4

Given item CCCC[n+]1ccn(C)c1.O=S(=O)([N-]S(=O)(=O)C(F)(F)F)C(F)(F)F , the value recorded as its mass density is 1436

Record CCCCn1cc[n+](C)c1.COS(=O)(=O)[O-] [1-butyl-3-methylimidazolium methyl sulfate] . Reported mass density: 1211.3

compound CCCCCCCCCCCCCC[P+](CCCCCC)(CCCCCC)CCCCCC.O=S(=O)([O-])C(F)(F)F , mass density observed: 982.3

Sure, the documented mass density for CCCCn1cc[n+](C)c1.O=S(=O)([O-])C(F)(F)F [1-butyl-3-methylimidazolium trifluoromethanesulfonate] is 1299.5

Note to self: mass density recorded for CC(=O)[O-].CCCCn1cc[n+](C)c1 [1-butyl-3-methylimidazolium acetate] was 1053.2

Measured mass density, CC(=O)[O-].CCCCCCCCCCCCCC[P+](CCCCCC)(CCCCCC)CCCCCC [trihexyl(tetradecyl)phosphonium acetate] : 891.3

mass density reported for this compound CCCCCCCCCCCCCC[P+](CCCCCC)(CCCCCC)CCCCCC.O=S(=O)([N-]S(=O)(=O)C(F)(F)F)C(F)(F)F : 1065.4

Reported mass density ( CCCCCCCCCCn1cc[n+](C)c1.O=S(=O)([N-]S(=O)(=O)C(F)(F)F)C(F)(F)F ) = 1278.3

For CCCCCCCCCCCCn1cc[n+](C)c1.O=S(=O)([N-]S(=O)(=O)C(F)(F)F)C(F)(F)F the compound record lists mass density as 1244.7

// mass density lookup, compound = CCCCn1cc[n+](C)c1.F[P-](F)(F)(F)(F)F [1-butyl-3-methylimidazolium hexafluorophosphate] , result: 1363.7

Consider CCCCCC[n+]1ccn(C)c1.O=S(=O)([N-]S(=O)(=O)C(F)(F)F)C(F)(F)F . Its measured mass density is 1371

Cited source for all entries: the NIST ThermoML archive (doi:10.1016/j.jct.2009.01.012)
